- Tested on: MS2 coat protein
- assay-overview: apparent KD of MS2 coat protein; designed switch direction (-1 OFF switch, 1 ON switch): -1; higher = weaker reporter binding
- condition-label: Eterna round: R95; input ligand: FMN 200 uM
Exercise: state measured apparent KD of MS2 coat protein for each of the sequences provided.
// note: answer is a bare numeric in nM

Specify reported apparent KD of MS2 coat protein for the sequence shown: AAAAAACAUGAGGAUCACCCAUGUCAGGAUAUCCGCGAAGGAAAGAAAAAAAAAAAAGGGAGAAGGGACAAAAA [April's Ex-date #4] (puzzle: Exclusion 1)
49.5

Look up and state reported apparent KD of MS2 coat protein for UUUAAUUUUUUUUUUUUACAAGCUUUUUGCUCGUCUUAUACAUGAGGAUCACCCAUGUAGGUGAAAAGUAAAUUAUC [JMF 45] (puzzle: Sensor v3, turn-off variant 2)
15.8

Consider the sequence GAUUAUGCGAGCUUUAGGGACAUGAGGAUCACCCAUGUUCGUCUUAUUGGUCUAGAUGCACUAACAUACCUAAAUCU [JMF 26] (puzzle: Sensor v3, turn-off variant 1) and give its recorded apparent KD of MS2 coat protein.
18

Let me know recorded apparent KD of MS2 coat protein for AAGAAACAUGAGGAUCACCCAUGUGAGGAUAUGAAAAAGAAAAUAAAAUAAAUAAGAAUCAGAAGGCACAAAGG [Mat - Mod of Hog D5] (puzzle: Exclusion 1) , thanks.
40.6

Indicate its recorded apparent KD of MS2 coat protein; the sequence in question is UUAUAUAGUGUGAGGAUAUGCUGGUCCUUGGAUCAGCAGAAGGCACAUGAGGAUCACCCAUGUAGUUAAUAAUA [Mat - Exclusion 4 - JL Mod - D16] (puzzle: Brourd's mod of Exclusion 4)
131
